system name: recombinant human AMCase (Homo sapiens)
procedure text: Human AMCase Activity Assay
particulars: recombinant hAMCase, 4-methylumbelliferyl chitobioside substrate, citrate buffer pH 5.2, 37° C., 60 minutes; read-out: Activity (IC50 value key)
Where a name gives a salt, the structure may show the parent alone.
Catalogue of compounds with associated IC50

As a guide, the following entries are already answered.
Data request, read-out IC50, for `CC1(C(=O)NCc2ccc(Br)cc2)CCN(c2nc(N)n[nH]2)CC1`
> 100 µM

Name the recorded IC50 for `Nc1n[nH]c(N2CCN(CCOc3ccccc3)CC2)n1` .
> 100 µM

Return reported IC50; argument: `Nc1n[nH]c(N2CCC(NS(=O)(=O)Cc3ccc(Cl)c(Cl)c3)CC2)n1`
10 to 100 µM

What does the data say about its IC50? Entry: CN(CCc1ccc(Br)cc1)C1CCN(c2nc(N)n[nH]2)CC1CCCO (stereo not drawn)
< 0.1 µM

Fill in: IC50 of C[C@H](CN1CCN(c2nc(N)n[nH]2)CC1)Oc1ccc(Br)cc1 [Example 61] is ___
1 to 10 µM

Next:
Can you look up the measured IC50 of `Cc1oc(C(F)(F)F)cc1CNC(=O)C1CCN(c2nc(N)n[nH]2)CC1` for me?
> 100 µM

IC50 for C[C@H](CN1CCN(c2nc(N)n[nH]2)CC1)Oc1ccc(Cl)cc1 [Example 241, dihydrochloride] ?
> 100 µM

What does the record list as IC50 for `Nc1n[nH]c(N2CCN(CCOc3ccc(Cl)c4ccccc34)CC2)n1` ?
1 to 10 µM

What does the data say about its IC50? Entry: Nc1n[nH]c(N2CCN(CCCc3ccccc3)C(CCCO)C2)n1 (stereo not drawn)
10 to 100 µM

---

system name: recombinant human AMCase (Homo sapiens, UniProt Q9BZP6)
Sequence (Q9BZP6 22-476): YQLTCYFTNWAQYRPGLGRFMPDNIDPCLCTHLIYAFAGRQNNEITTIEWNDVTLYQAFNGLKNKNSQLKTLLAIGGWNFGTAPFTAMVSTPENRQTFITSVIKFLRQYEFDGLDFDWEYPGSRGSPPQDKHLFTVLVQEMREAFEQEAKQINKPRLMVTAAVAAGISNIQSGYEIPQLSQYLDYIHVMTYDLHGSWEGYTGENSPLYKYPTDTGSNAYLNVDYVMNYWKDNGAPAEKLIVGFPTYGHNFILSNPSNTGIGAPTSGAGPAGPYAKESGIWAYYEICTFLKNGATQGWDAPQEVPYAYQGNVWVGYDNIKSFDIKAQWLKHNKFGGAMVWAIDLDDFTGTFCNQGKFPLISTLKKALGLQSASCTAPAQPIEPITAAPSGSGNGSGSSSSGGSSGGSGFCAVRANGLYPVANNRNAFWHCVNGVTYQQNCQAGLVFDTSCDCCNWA
procedure text: Human AMCase Activity Assay
particulars: recombinant hAMCase, 4-methylumbelliferyl chitobioside substrate, citrate buffer pH 5.2, 37° C., 60 minutes; read-out: Activity (IC50 value key)
Description: Human AMCase Activity Assay The assay was run in the 96-well plate format, each reaction in the total volume of 100 μl. 4-Methylumbelliferyl B-D-N,N′ diacetylchitobioside hydrate was used as a substrate for the enzyme. Upon hydrolysis by AMCase, the substrate releases 4-methylumbelliferyl (4MU), when ionized in basic pH, emits fluorescence of 460 nm. Briefly, 40 μl of a substrate was added to each well, followed by 10 μl of compound dilution and 50 μl of hAMCase recombinant enzyme solution. […]
pIC50: −log10 of the molar value. Where a name gives a salt, the structure may show the parent alone.
reported endpoint: pIC50

Field: example entries. Status: answers known.
Can you share its pIC50? I mean this compound: Nc1n[nH]c(N2CCC(NCCc3ccc(Cl)cc3)C(CCCO)C2)n1 (stereo not drawn) [Example 251, dihydrochloride]
> 7.00

Item under review: Nc1n[nH]c(N2CCN(CCO)CC2)n1 [Example 77] . Reported pIC50?
< 4.00

Need pIC50, item CC1CN(c2nc(N)n[nH]2)CCN1CCOc1ccc(Br)cc1 (stereo not drawn) [Example 26]
5.00 to 6.00

GET /values?readout=pIC50&item= Cc1ccc(OC(C)C(=O)N2CCN(c3nc(N)n[nH]3)CC2)c(C)c1 (stereo not drawn) [Example 35]
< 4.00

Suppose we examine the compound Nc1n[nH]c(N2CCN(CCCc3ccc(Br)cc3)C(CCCO)C2)n1 (stereo not drawn) [Example 225] ; what pIC50 value has been reported?
5.00 to 6.00

---
Reported pIC50, compound CCc1ccccc1OC(C)C(=O)N1CCN(c2nc(N)n[nH]2)CC1 (stereo not drawn) [Example 33] : ____
< 4.00

Could you share which pIC50 value was measured for Nc1n[nH]c(N2CCN(C(=O)C(O)Cc3ccccc3Cl)CC2)n1 (stereo not drawn) [Example 73] ?
< 4.00

Form field: reported pIC50 of Nc1n[nH]c(N2CCN(C(=O)CC(N)c3cccc(F)c3)CC2)n1 (stereo not drawn) [Example 233]
< 4.00

Quick one: pIC50 for Nc1n[nH]c(N2CCN(C(CCc3ccc(Br)cc3)Cc3ccccc3)CC2)n1 (stereo not drawn) [Example 257, trifluoroacetate] ?
6.00 to 7.00

Item CN(CCc1ccc(Cl)cc1)C1(CCCO)CCN(c2nc(N)n[nH]2)CC1 [Example 245] has what recorded pIC50?
5.00 to 6.00

---

system name: recombinant human AMCase (Homo sapiens, UniProt Q9BZP6)
procedure text: Human AMCase Activity Assay
particulars: recombinant hAMCase, 4-methylumbelliferyl chitobioside substrate, citrate buffer pH 5.2, 37° C., 60 minutes; read-out: Activity (IC50 value key)
Where a name gives a salt, the structure may show the parent alone.
Below, each entry is listed with its recorded IC50.

Example compounds with recorded IC50:
For the compound Nc1n[nH]c(N2CCN(C(=O)CC(N)c3ccc(F)cc3)CC2)n1 (stereo not drawn) [Example 215, dihydrochloride] , what IC50 is on record?
> 100000 nM

Form field: reported IC50 of CC(Cc1ccc(Br)cc1)CN1CCN(c2nc(N)n[nH]2)CC1 (stereo not drawn) [Example 39, dihydrochloride]
1000 to 10000 nM

// returns reported IC50 for input CN(CCc1ccc(Cl)c(Cl)c1)C1CCN(c2nc(N)n[nH]2)CC1 [Example 176]
1000 to 10000 nM

Consider the compound shown here: Nc1n[nH]c(N2CCN(C(=O)CC(N)c3ccc(Cl)cc3)CC2)n1 (stereo not drawn) [Example 40] What is its recorded IC50?
> 100000 nM

New cases:
What measured IC50 goes with CN(CCc1ccc(F)cc1)C1CCN(c2nc(N)n[nH]2)CC1 [Example 183] ?
1000 to 10000 nM

Suppose we examine the compound CN(C1CCN(c2nc(N)n[nH]2)CC1)S(=O)(=O)Cc1cccc(Cl)c1 [Example 248, hydrochloride] ; what IC50 value has been reported?
> 100000 nM

# IC50 lookup, item CN(Cc1ccc(Cl)cc1)C1CCN(c2nc(N)n[nH]2)CC1 [Example 148, dihydrochloride]
> 100000 nM

State the recorded IC50 for this entry: Nc1n[nH]c(N2CCC(N(CCc3ccc(Cl)cc3)Cc3ccccc3F)CC2)n1 [Example 137, dihydrochloride]
< 100 nM

Endpoint output: IC50 of CN(CCc1ccc(Cl)cc1)C1CCN(c2nc(N)n[nH]2)CC1F (stereo not drawn) [Example 150] . Value?
1000 to 10000 nM

---

system name: recombinant human AMCase (Homo sapiens, UniProt Q9BZP6)
procedure text: Human AMCase Activity Assay
particulars: recombinant hAMCase, 4-methylumbelliferyl chitobioside substrate, citrate buffer pH 5.2, 37° C., 60 minutes; read-out: Activity (IC50 value key)
pIC50: −log10 of the molar value. Where a name gives a salt, the structure may show the parent alone.
The compounds listed here are annotated with their pIC50.

Item: `Nc1n[nH]c(N2CCC(N(CCc3ccc(Cl)cc3)Cc3ccncc3F)CC2)n1` Test system: recombinant human AMCase (Homo sapiens, UniProt Q9BZP6) Read-out: pIC50 Value: ?
> 7.00

Form entry - test system: recombinant human AMCase (Homo sapiens, UniProt Q9BZP6); read-out: pIC50; compound: CN(CCc1ccccn1)C1CCN(c2nc(N)n[nH]2)CC1 [Example 157, trihydrochloride]
4.00 to 5.00

Form field - read-out: pIC50; system: recombinant human AMCase (Homo sapiens, UniProt Q9BZP6); submitted item: `Nc1n[nH]c(N2CCC(N(CCc3ccc(Cl)cc3)Cc3ccc(C(F)(F)F)cc3)CC2)n1`
> 7.00

---
Form entry - test system: recombinant human AMCase (Homo sapiens, UniProt Q9BZP6); read-out: pIC50; compound: `Nc1n[nH]c(N2CCC(C(=O)NCc3cc(C(F)(F)F)cc(C(F)(F)F)c3)CC2)n1`
< 4.00

What measured pIC50 is associated with `Nc1n[nH]c(N2CCC(N(CCc3ccc(Br)cc3)Cc3cccc4ccncc34)CC2)n1` on recombinant human AMCase (Homo sapiens, UniProt Q9BZP6)?
> 7.00

Find pIC50 (recombinant human AMCase (Homo sapiens, UniProt Q9BZP6)) for the entry Cc1cccc(OC(C)C(=O)N2CCN(c3nc(N)n[nH]3)CC2)c1 (centres unmarked)
< 4.00

Lab note: need pIC50 for CC(Cc1ccc(Cl)cc1)N(C)C1CCN(c2nc(N)n[nH]2)CC1 (centres unmarked) [Example 200] on recombinant human AMCase (Homo sapiens, UniProt Q9BZP6), anyone have it?
> 7.00

Observed pIC50 on recombinant human AMCase (Homo sapiens, UniProt Q9BZP6) for `Nc1n[nH]c(N2CCC(N(CCc3ccc(Cl)cc3)[C@H](CO)c3ccccc3)CC2)n1` , please.
> 7.00

---

system name: recombinant human AMCase (Homo sapiens, UniProt Q9BZP6)
procedure text: Human AMCase Activity Assay
particulars: recombinant hAMCase, 4-methylumbelliferyl chitobioside substrate, citrate buffer pH 5.2, 37° C., 60 minutes; read-out: Activity (IC50 value key)
Where a name gives a salt, the structure may show the parent alone.
# IC50 per entry

Worked cases, IC50 given:
Returns the measured IC50 for the input compound. Input: CC(C)(C)CN(CCc1ccc(Cl)cc1)C1CCN(c2nc(N)n[nH]2)CC1 [Example 94, dihydrochloride]
< 0.1 µM

For the compound `Nc1n[nH]c(N2CCC(C(=O)NCc3ccccc3F)CC2)n1` , what IC50 is on record?
> 100 µM

# get_value(readout='IC50', item= `Nc1n[nH]c(N2CCC(NS(=O)(=O)Cc3cccc(C(F)(F)F)c3)CC2)n1` )
1 to 10 µM

Further cases:
Fill in the blank: the reported IC50 of CCCC1CN(c2nc(N)n[nH]2)CCC1NCCc1ccc(Cl)cc1 (single isomer, unassigned) [Example 231] is ____.
0.1 to 1 µM

I would be grateful if you could share the reported IC50 for CCCC1(NCCc2ccc(Br)cc2)CCN(c2nc(N)n[nH]2)CC1 [Example 247, dihydrochloride] .
1 to 10 µM

GET /values?readout=IC50&item= CN(C1CCN(c2nc(N)n[nH]2)CC1)C(CO)Cc1ccc(Cl)cc1 (stereo not drawn) [Example 130, dihydrochloride]
0.1 to 1 µM
